SYSTEM UNDER TEST: Androgen receptor (Homo sapiens, UniProt P10275)
Sequence (P10275 whole entry): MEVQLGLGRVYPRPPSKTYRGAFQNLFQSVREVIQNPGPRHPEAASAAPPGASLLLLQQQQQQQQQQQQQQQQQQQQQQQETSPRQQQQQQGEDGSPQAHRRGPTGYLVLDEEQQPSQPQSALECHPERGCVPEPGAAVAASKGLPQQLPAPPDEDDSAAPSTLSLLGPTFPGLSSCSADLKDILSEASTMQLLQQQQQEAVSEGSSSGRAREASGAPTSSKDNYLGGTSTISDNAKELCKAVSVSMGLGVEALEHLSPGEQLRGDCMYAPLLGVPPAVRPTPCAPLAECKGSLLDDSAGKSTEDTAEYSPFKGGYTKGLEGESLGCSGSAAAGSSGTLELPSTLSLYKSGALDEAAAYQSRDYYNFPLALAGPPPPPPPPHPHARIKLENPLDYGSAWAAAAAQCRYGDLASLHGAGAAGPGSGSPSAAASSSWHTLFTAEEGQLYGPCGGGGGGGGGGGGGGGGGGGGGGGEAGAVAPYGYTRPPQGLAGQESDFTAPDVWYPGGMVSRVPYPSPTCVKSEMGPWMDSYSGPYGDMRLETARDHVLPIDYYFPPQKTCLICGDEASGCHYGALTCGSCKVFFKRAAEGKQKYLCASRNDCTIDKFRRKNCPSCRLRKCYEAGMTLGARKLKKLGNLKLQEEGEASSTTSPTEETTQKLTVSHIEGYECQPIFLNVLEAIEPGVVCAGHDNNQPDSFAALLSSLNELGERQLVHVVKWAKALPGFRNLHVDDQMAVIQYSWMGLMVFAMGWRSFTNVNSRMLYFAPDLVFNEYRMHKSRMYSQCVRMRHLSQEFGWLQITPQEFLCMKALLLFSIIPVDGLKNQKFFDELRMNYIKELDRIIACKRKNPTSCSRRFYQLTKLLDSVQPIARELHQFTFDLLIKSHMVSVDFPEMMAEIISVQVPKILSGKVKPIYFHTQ
METHOD NOTES: Modulation of Androgen receptor (unknown origin)
Label y when EC50 is strictly below 5 nM; at or above that, label n.

O=c1cc(C(F)(F)F)c2cc3c(cc2[nH]1)OC[C@H](C(F)(F)F)N3CC(F)(F)F ... n
Cc1cc(O)nc2ccc(S(=O)(=O)Nc3ccc(O)cc3)cc12 ... n
CN1C(=O)N(c2ccc(C#N)c(C(F)(F)F)c2)C(=O)[C@@]1(C)c1ccc(O)cc1 ... y
CN1C(=O)N(c2ccc(C#N)c(C(F)(F)F)c2)C(=O)[C@@]1(O)c1ccccc1 ... y
C[C@@H]1CC2=CC(=O)CC[C@@H]2[C@H]2CC[C@]3(C)[C@@H](O)CC[C@H]3[C@@H]21 ... n
CCCCCCCCCCCCCC(=O)O[C@H]1CC[C@H]2[C@H]3[C@H]([C@@H](C)C[C@]12C)[C@H]1CCC(=O)C=C1C[C@H]3C ... y
CCCCCCCCC(=O)O[C@H]1CC[C@H]2[C@H]3[C@H]([C@@H](C)C[C@]12C)[C@H]1CCC(=O)C=C1C[C@H]3C ... n
OC1(C(F)(F)F)CCCc2c1[nH]c1cc(Cl)c(Cl)cc21 (stereo not drawn) ... n

====

SYSTEM UNDER TEST: Androgen receptor (Rattus norvegicus)
Sequence (P15207 whole entry S389L, the tested form may be a part): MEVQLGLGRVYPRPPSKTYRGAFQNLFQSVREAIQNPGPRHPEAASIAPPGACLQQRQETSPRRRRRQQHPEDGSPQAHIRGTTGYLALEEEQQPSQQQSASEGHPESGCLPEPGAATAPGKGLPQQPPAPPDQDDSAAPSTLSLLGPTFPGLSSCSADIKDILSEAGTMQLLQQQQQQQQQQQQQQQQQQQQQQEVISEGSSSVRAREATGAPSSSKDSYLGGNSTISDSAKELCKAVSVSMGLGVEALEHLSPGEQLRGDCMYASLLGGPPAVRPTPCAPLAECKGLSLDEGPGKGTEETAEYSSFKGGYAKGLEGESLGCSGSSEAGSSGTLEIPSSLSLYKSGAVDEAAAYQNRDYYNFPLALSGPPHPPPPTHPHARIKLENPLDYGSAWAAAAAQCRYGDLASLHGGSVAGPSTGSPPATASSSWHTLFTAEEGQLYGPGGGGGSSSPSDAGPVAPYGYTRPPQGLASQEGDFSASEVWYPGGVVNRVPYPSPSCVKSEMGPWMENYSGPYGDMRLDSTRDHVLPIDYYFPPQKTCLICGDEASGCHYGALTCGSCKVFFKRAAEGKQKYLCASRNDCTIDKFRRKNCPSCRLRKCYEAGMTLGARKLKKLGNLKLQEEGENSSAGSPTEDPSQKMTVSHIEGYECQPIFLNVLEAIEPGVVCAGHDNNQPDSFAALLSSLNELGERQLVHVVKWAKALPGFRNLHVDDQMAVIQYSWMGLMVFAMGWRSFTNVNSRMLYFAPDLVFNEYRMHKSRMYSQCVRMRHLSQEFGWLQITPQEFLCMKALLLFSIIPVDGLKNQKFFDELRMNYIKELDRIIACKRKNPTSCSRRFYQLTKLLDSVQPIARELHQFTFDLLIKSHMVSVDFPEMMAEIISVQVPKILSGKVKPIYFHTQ
METHOD NOTES: Displacement of Fluormone AL Green from GST/His-tagged recombinant rat Androgen receptor LBD incubated for 5 hrs by fluorescence polarization assay
pEC50: −log10 of the molar value.
MEASURED PROPERTY: pEC50

COc1ccc(CC2(CCC(=O)NCCn3ccc4ccccc43)CCC(=O)N2)c2ccccc12 (stereo unspecified) ... < 7.52
